Data credit: PubChem BioAssay (NCI)

System: SK-MEL-5 melanoma
Test: NCI-60 one-dose screen, 48 h (100 = growth as untreated, 0 = no growth, -100 = all killed)
Details: 10 µM unless noted
This is part of a sample that, as a whole, favours compounds with a hit. Of some 83,000 tested, about 20% had one in any assay.
Recorded measurements of growth, one per entry
endpointName: growth (%)

compound	reportedMeasurement
CCC(C)[C@H](NC(=O)NC(=O)NC(=O)CI)C(=O)OC (some centres undefined)	91.5
COc1ncc(-c2ccc3nccc(C#CCCCCC(=O)NO)c3c2)cc1NS(=O)(=O)c1ccc(F)cc1F	-97.3
CC1Cc2ccc(OCCN(C)C)cc2C1=O (centres undefined)	91.6
CCCSc1nc(N)nc2nc[nH]c12	101
CCOC(=O)c1cc(C(=O)c2ccc(OC)c(OC)c2)n2ccc(-c3ccccn3)cc12	37.1
O=C(Nc1cccnc1)c1ccc2ccc3ccc(C(=O)Nc4cccnc4)nc3c2n1	26.3
CCc1ccc(NC(=O)N[C@@H](Cc2cc(F)cc(F)c2)C(=O)N[C@@H]2C(=O)N3C[C@H](O)C[C@H]3C(=O)N3CCOC[C@H]3C(=O)N[C@@H](C)C(=O)N3C[C@H](C)C[C@H]3C(=O)O[C@H]2C)cc1	85
CCOC(=O)COc1c(C)cc(SSc2cc(C)c(OCC(=O)OCC)c(C)c2)cc1C	94.6
CC1Cc2c(Cl)ncnc2N(C)c2ccc(Cl)cc21 (centres undefined)	-86.9
